Reported logD7.4 values for the following molecules.
test: n-Octanol-PBS partition coefficient (logD7.4); assay type: physicochemical; conditions: 18F-labeled ligand; n-octanol/PBS pH=7.4; mean ± SD (n = 5)
*1 amine or outer side, *2 acyl side, *3 side chain or, on linkers, in order; H or OH if unused. Where a SMILES comes first, the peptide text is derived from it. Side-chain parts run from the residue outwards. [ ]: non-standard residue; d: D form. The star is where a group is joined. X1 = O=C(O)CC[C@H](NC(=O)N[C@@H](CCC(=O)N[C@H](CCCN*)C(=O)O)C(=O)O)C(=O)O; Benzoyl(4-SiFtBu2) = CC(C)(C)[Si](F)(c1ccc(C(=O)*)cc1)C(C)(C)C; dCit = NC(=O)NCCC[C@@H](N)C(=O)O; Suc = O=C(CCC(=O)[*:2])[*:1]; dDap = NC[C@@H](N)C(=O)O

Study these solved cases before continuing.
C[C@H](O)[C@@H](NC(=O)CC[C@H](NC(=O)N[C@@H](CCC(=O)O)C(=O)O)C(=O)O)C(=O)N[C@H](CNC(=O)c1ccc([Si](F)(C(C)(C)C)C(C)(C)C)cc1)C(=O)N[C@H](CCCCNC(=O)CCC(=O)NCCC[C@@H](NC(=O)CC[C@H](NC(=O)N[C@@H](CCC(=O)O)C(=O)O)C(=O)O)C(=O)O)C(=O)O	−3.86 ± 0.07
CC(C)(C)[Si](F)(c1ccc(C(=O)NC[C@@H](NC(=O)[C@@H](CCC(=O)O)NC(=O)CC[C@H](NC(=O)N[C@@H](CCC(=O)O)C(=O)O)C(=O)O)C(=O)N[C@H](CCCCNC(=O)CCC(=O)NCCC[C@@H](NC(=O)CC[C@H](NC(=O)N[C@@H](CCC(=O)O)C(=O)O)C(=O)O)C(=O)O)C(=O)O)cc1)C(C)(C)C	−4.04 ± 0.08
CC(C)(C)[Si](F)(c1ccc(C(=O)NC[C@@H](NC(=O)[C@H](CCC(=O)O)NC(=O)CC[C@H](NC(=O)N[C@@H](CCC(=O)O)C(=O)O)C(=O)O)C(=O)N[C@H](CCCCNC(=O)CCC(=O)NCCC[C@@H](NC(=O)CC[C@H](NC(=O)N[C@@H](CCC(=O)O)C(=O)O)C(=O)O)C(=O)O)C(=O)O)cc1)C(C)(C)C	−3.72 ± 0.02
CC(C)(C)[Si](F)(c1ccc(C(=O)NC[C@@H](NC(=O)CCCCCNC(=O)CC[C@@H](NC(=O)N[C@H](CCC(=O)O)C(=O)O)C(=O)O)C(=O)N[C@H](CCCCNC(=O)CCC(=O)NCCC[C@@H](NC(=O)CC[C@H](NC(=O)N[C@@H](CCC(=O)O)C(=O)O)C(=O)O)C(=O)O)C(=O)O)cc1)C(C)(C)C	−3.24 ± 0.03
CC(C)(C)[Si](F)(c1ccc(C(=O)NC[C@@H](NC(=O)[C@@H](CN)NC(=O)[C@@H](CCC(=O)O)NC(=O)[C@H](N)CCC(=O)O)C(=O)N[C@H](CCCCNC(=O)CCC(=O)NCCC[C@@H](NC(=O)CC[C@H](NC(=O)N[C@@H](CCC(=O)O)C(=O)O)C(=O)O)C(=O)O)C(=O)O)cc1)C(C)(C)C [SiFA-PSMA ligand 03 d] (H-[dE][dE][dDap][dDap](Benzoyl(4-SiFtBu2))[dK]([Suc-X1])-OH)	−3.42 ± 0.05

Using the record for `CC(C)(C)[Si](F)(c1ccc(C(=O)NC[C@@H](NC(=O)[C@@H](CCCCN)NC(=O)CC[C@H](NC(=O)N[C@@H](CCC(=O)O)C(=O)O)C(=O)O)C(=O)N[C@H](CCCCNC(=O)CCC(=O)NCCC[C@@H](NC(=O)CC[C@H](NC(=O)N[C@@H](CCC(=O)O)C(=O)O)C(=O)O)C(=O)O)C(=O)O)cc1)C(C)(C)C` , report its logD7.4.
−3.71 ± 0.03

`CC(C)(C)[Si](F)(c1ccc(C(=O)NC[C@@H](NC(=O)[C@H](N)CNC(=O)[C@@H](CCC(=O)O)NC(=O)[C@H](N)CCC(=O)O)C(=O)N[C@H](CCCCNC(=O)CCC(=O)NCCC[C@@H](NC(=O)CC[C@H](NC(=O)N[C@@H](CCC(=O)O)C(=O)O)C(=O)O)C(=O)O)C(=O)O)cc1)C(C)(C)C` , same question.
−3.33 ± 0.11

`CC(C)(C)[Si](F)(c1ccc(C(=O)NC[C@@H](NC(=O)[C@H](N)CNC(=O)CC[C@H](NC(=O)N[C@@H](CCC(=O)O)C(=O)O)C(=O)O)C(=O)N[C@H](CCCCNC(=O)CCC(=O)NCCC[C@@H](NC(=O)CC[C@H](NC(=O)N[C@@H](CCC(=O)O)C(=O)O)C(=O)O)C(=O)O)C(=O)O)cc1)C(C)(C)C` , same question.
−3.65 ± 0.09

CC(C)(C)[Si](F)(c1ccc(C(=O)NC[C@@H](NC(=O)[C@@H](CC(=O)O)NC(=O)[C@@H](CCC(=O)O)NC(=O)[C@H](N)CCC(=O)O)C(=O)N[C@H](CCCCNC(=O)CCC(=O)NCCC[C@@H](NC(=O)CC[C@H](NC(=O)N[C@@H](CCC(=O)O)C(=O)O)C(=O)O)C(=O)O)C(=O)O)cc1)C(C)(C)C [SiFA-PSMA ligand 03 a] (H-[dE][dE][dD][dDap](Benzoyl(4-SiFtBu2))[dK]([Suc-X1])-OH) , same question.
−3.80 ± 0.06

CC(C)(C)[Si](F)(c1ccc(C(=O)NC[C@@H](NC(=O)[C@@H](CCCNC(N)=O)NC(=O)[C@@H](CCCNC(N)=O)NC(=O)[C@H](N)CCCNC(N)=O)C(=O)N[C@H](CCCCNC(=O)CCC(=O)NCCC[C@@H](NC(=O)CC[C@H](NC(=O)N[C@@H](CCC(=O)O)C(=O)O)C(=O)O)C(=O)O)C(=O)O)cc1)C(C)(C)C [SiFA-PSMA ligand 05] (H-[dCit][dCit][dCit][dDap](Benzoyl(4-SiFtBu2))[dK]([Suc-X1])-OH) , same question.
−3.17 ± 0.02

`CC(C)(C)[Si](F)(c1ccc(C(=O)NC[C@@H](NC(=O)[C@H](CCCCN)NC(=O)CC[C@H](NC(=O)N[C@@H](CCC(=O)O)C(=O)O)C(=O)O)C(=O)N[C@H](CCCCNC(=O)CCC(=O)NCCC[C@@H](NC(=O)CC[C@H](NC(=O)N[C@@H](CCC(=O)O)C(=O)O)C(=O)O)C(=O)O)C(=O)O)cc1)C(C)(C)C` , same question.
−3.71 ± 0.16
